B1: Azoarcus group I ribozyme (parent)
chain: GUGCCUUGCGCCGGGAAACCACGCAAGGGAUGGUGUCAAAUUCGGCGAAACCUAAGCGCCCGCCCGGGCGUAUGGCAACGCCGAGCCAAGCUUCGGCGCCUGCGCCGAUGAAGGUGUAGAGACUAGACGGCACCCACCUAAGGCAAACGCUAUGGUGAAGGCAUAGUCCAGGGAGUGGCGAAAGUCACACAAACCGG

# Variants of: B1
# ASSAY REMARKS: reverse-splicing fitness (ratio to wild type); higher = more active; in vitro selection; Mg2+ level not given
READOUT: reverse-splicing fitness

VARIANT SPEC	READOUT	TEST VALUE
C82G A120C A145U U176A	reverse-splicing fitness	0.0752
C82G A111U A120U A145G C150G C169U U176C	reverse-splicing fitness	0.00721
C82G A111G A120G A145C U176G	reverse-splicing fitness	0.0063
C82U A111G A120U A145C C150U C169U U176A	reverse-splicing fitness	0.00264
C82G A111G A120G C150U	reverse-splicing fitness	0.0156
C82G A111G A145C U176A	reverse-splicing fitness	0.267
A111C A120U A145U C150U C169G U176A	reverse-splicing fitness	0.00509
C82G A111U A120G U176A	reverse-splicing fitness	0.0148
C82A A145C C150U C169U	reverse-splicing fitness	0.0111
C82U A120U A145U C169A U176C	reverse-splicing fitness	0.00166
C82G A111G A120U A145G C169U U176A	reverse-splicing fitness	0.00415
C82G A120G A145C C150U C169U U176A	reverse-splicing fitness	0.0184
C82U A111G A120G A145C C150G C169G U176G	reverse-splicing fitness	0.00399
C82G A111U C169A	reverse-splicing fitness	0.00938
C82A A120G A145G C150U C169A U176G	reverse-splicing fitness	0.00535
C82G A111U A120G A145G C150U C169U	reverse-splicing fitness	0.0112
C82A A111C A120U A145U C150A C169G U176C	reverse-splicing fitness	0.00377
C82U A120C A145U C150G C169U	reverse-splicing fitness	0.00863
C82A A111G A120C A145C C150G C169A U176G	reverse-splicing fitness	0.00545
C82G A111C A145G C150U C169G U176C	reverse-splicing fitness	0.0159
C82U A111C A120C A145U C150G C169G U176A	reverse-splicing fitness	0.00759
A111U A145C C150G C169G U176C	reverse-splicing fitness	0.00846
C82G A120G A145G C150A C169A U176C	reverse-splicing fitness	0.0228
C82G A111G A120U A145C C150U C169A U176A	reverse-splicing fitness	0.00272
C82G A111U A120C A145U C150A C169G	reverse-splicing fitness	0.00901
C82A C150U C169U U176G	reverse-splicing fitness	0.00577
C82U A111C A120C C150G C169G U176C	reverse-splicing fitness	0.0068
A120C A145G C169G U176A	reverse-splicing fitness	0.0155
C82U A111U A120U A145C C150A C169U U176C	reverse-splicing fitness	0.00269
A111G C150G C169U	reverse-splicing fitness	0.0227
A111G A120U A145C C150U U176A	reverse-splicing fitness	0.0932
C82G A111C A120U C150A U176A	reverse-splicing fitness	0.00581
C82A A111C A145C C150U C169A U176C	reverse-splicing fitness	0.01
A111C A120U A145G C150U C169G U176C	reverse-splicing fitness	0.00994
C82A A111G A145C C150G C169G U176C	reverse-splicing fitness	0.00679
C82U A111G A120G A145U C150U U176C	reverse-splicing fitness	0.0124
C82G A111U A120U A145G C169U	reverse-splicing fitness	0.00483
C82G A111G A120G A145U C150G C169A U176G	reverse-splicing fitness	0.00555
C82G A111C A120G A145G C150G C169U U176A	reverse-splicing fitness	0.0106
C82U A111C A120C A145G C150U C169U U176A	reverse-splicing fitness	0.0156
C82U A120U A145U	reverse-splicing fitness	0.181
A111C A145C C169A U176C	reverse-splicing fitness	0.0113
C82A A145U C150A C169G U176A	reverse-splicing fitness	0.0139
C82G A120U A145G C150G C169A	reverse-splicing fitness	0.00872
C82U A120G C150A C169A	reverse-splicing fitness	0.0118
A111U A120U A145G C169A U176G	reverse-splicing fitness	0.00247
